test system: wild oat (Avena fatua); test: Test B pre-/postemergence plant response; format: in vivo; conditions: Postemergence, 62 g ai/ha; scale 0 to 100, 0 no effect, 100 complete control
reported-property: Plant response rating, Oat, Wild
# respond with the number and nothing more

These recorded examples may help you get a feel for the data.
Cn1ncc(O)c(-n2nc(-c3ccc(Cl)cc3)cc2C2CC2)c1=O [Compound 45]; 100
CCCc1cc(-c2ccc(Cl)cc2)nn1-c1c(O)cnn(C)c1=O [Compound 76]; 100
COc1nn(C)c(=O)c(-n2nc(-c3ccc(Br)cc3)cc2C)c1O [Compound 82]; 100
CCCC(=O)Oc1cnn(C)c(=O)c1-n1nc(-c2ccc(Cl)cc2)cc1C [Compound 56]; 90
CCc1cc(-c2ccc(Br)cc2)nn1-c1c(O)c(C)nn(C)c1=O [Compound 74]; 100

For the next question, use this compound.
Incoming: Could you share which Plant response rating, Oat, Wild value was measured for Cc1cc(-c2ccc(Cl)cc2)nn1-c1c(OC(=O)c2cccc(Cl)c2)cnn(C)c1=O [Compound 32] ?
Outgoing: 95
